# Test system: IMC-1 (IL-2 20 ng/mL)
# assay_method_text: percent inhibition of viability; higher = more inhibition
# assay_conditions: 72 h; 1 nM
Kindly supply the reported percent inhibition of viability values for the records listed here.
# value in %; strip the unit string

Lookup result for Cc1sc2c(c1C)C(c1ccc(Cl)cc1)=N[C@@H](CC(=O)Nc1ccc(O)cc1)c1nnc(C)n1-2 [OTX015] (max concentration tested 10000 nM) ; measured percent inhibition of viability: -7.07

Lookup result for O=C(/C=C/c1cccnc1)NCCCCC1CCN(C(=O)c2ccccc2)CC1 [Daporinad] (max concentration tested 1000 nM) ; measured percent inhibition of viability: -0.58

Lookup result for O=C(c1ccc(F)c(F)c1Nc1ccc(I)cc1F)N1CC(O)([C@@H]2CCCCN2)C1 [Cobimetinib] (max concentration tested 1000 nM) ; measured percent inhibition of viability: -4.02

Lookup result for Cn1cc(C2=Nc3cc(NC(=O)C(N)C4CCCCC4)cc4c3C2=CNNC4=O)cn1 (stereo not given) (max concentration tested 10000 nM) ; measured percent inhibition of viability: -2.84

Lookup result for C=CC(=O)Nc1cc2c(Nc3ccc(F)c(Cl)c3)ncnc2cc1OCCCN1CCOCC1 [Canertinib] (max concentration tested 10000 nM) ; measured percent inhibition of viability: -13.9

Lookup result for CCc1c2c(nc3ccc(OC(=O)N4CCC(N5CCCCC5)CC4)cc13)-c1cc3c(c(=O)n1C2)COC(=O)[C@]3(O)CC [Irinotecan] (max concentration tested 10000 nM) ; measured percent inhibition of viability: -2.65

Lookup result for CCN1CCN(c2ccc(Nc3cc(N(C)C(=O)Nc4c(Cl)c(OC)cc(OC)c4Cl)ncn3)cc2)CC1 [NVP-BGJ398] (max concentration tested 1000 nM) ; measured percent inhibition of viability: 3.41

Lookup result for NC(=O)c1ccc(I)c([N+](=O)[O-])c1 [Iniparib] (max concentration tested 10000 nM) ; measured percent inhibition of viability: 2.82

Lookup result for OC[C@H]1O[C@@H](n2cnc3c2N=CNC[C@H]3O)C[C@@H]1O [Pentostatin] (max concentration tested 10000 nM) ; measured percent inhibition of viability: 0.7

Lookup result for CCS(=O)(=O)c1cccc(-c2cc(C(=O)NC3CCN(C)CC3)c(C)c3[nH]c4ncc(C)cc4c23)c1 [TAK-901] (max concentration tested 1000 nM) ; measured percent inhibition of viability: 1.82

---

# Test system: YT (IL-2 2.5 ng/mL)
# assay_method_text: drug sensitivity score (DSS) (DSS units); higher = more sensitive; extreme values may be limits of the assay
# assay_conditions: 72 h
Kindly supply the reported drug sensitivity score values for the records listed here.
Output spec: single numeric token, no unit.

Lookup result for CCOC(=O)CCNc1cc(N2CCc3ccccc3CC2)nc(-c2ccccn2)n1 [GSK-J4] (max concentration tested 100000 nM) ; measured drug sensitivity score: 18.9

Lookup result for CCN1CCN(c2ccc(Nc3cc(N(C)C(=O)Nc4c(Cl)c(OC)cc(OC)c4Cl)ncn3)cc2)CC1 [NVP-BGJ398] (max concentration tested 1000 nM) ; measured drug sensitivity score: 0.2

Lookup result for FC(F)(F)c1ccc(/C=C/c2nc(COc3ccc(CCCCn4ccnn4)cc3)co2)cc1 [Mubritinib] (max concentration tested 1000 nM) ; measured drug sensitivity score: 11

---

# Test system: NK-92 (IL-2 2.5 ng/mL)
# assay_method_text: percent inhibition of viability; higher = more inhibition
# assay_conditions: 72 h; 10 nM
reported_endpoint: percent inhibition of viability (%)
# value in %; strip the unit string

The value of percent inhibition of viability recorded for CC(=O)NCC(=O)N1[C@@H]2CC[C@H]1c1ccc(Nc3ncc(C(F)(F)F)c(NC4CCC4)n3)cc12 (max concentration tested 10000 nM) when tested on NK-92 (IL-2 2.5 ng/mL) reads 2.73

The value of percent inhibition of viability recorded for Cc1[nH]c(/C=C2\C(=O)Nc3ccccc32)c(C)c1CCC(=O)O [Orantinib] (max concentration tested 10000 nM) when tested on NK-92 (IL-2 2.5 ng/mL) reads -1.51

The value of percent inhibition of viability recorded for CCN1CCN(c2ccc(Nc3cc(N(C)C(=O)Nc4c(Cl)c(OC)cc(OC)c4Cl)ncn3)cc2)CC1 [NVP-BGJ398] (max concentration tested 1000 nM) when tested on NK-92 (IL-2 2.5 ng/mL) reads 9.63

The value of percent inhibition of viability recorded for CN(C)c1cc2c(cc1Sc1nc3c(N)nccc3n1CCNCC(C)(C)C)OCO2 [CUDC-305] (max concentration tested 10000 nM) when tested on NK-92 (IL-2 2.5 ng/mL) reads -2.97

---

Kindly supply the reported percent inhibition of viability values for the records listed here.
# System: YT (IL-2 2.5 ng/mL)
# assay_method_text: percent inhibition of viability; higher = more inhibition
# assay_conditions: 72 h; 1 nM
# value in %; strip the unit string

Lookup result for Cc1cc(C(C)Nc2ccccc2)c2nc(N3CCOCC3)cc(=O)n2c1 (stereo not given) [TGX-221] (max concentration tested 10000 nM) ; measured percent inhibition of viability: -1.99

Lookup result for COc1cccc2c1c(O)c(C(=O)N(C)c1ccc(C(F)(F)F)cc1)c(=O)n2C [Tasquinimod] (max concentration tested 10000 nM) ; measured percent inhibition of viability: -0.31

Lookup result for COc1ncc(-c2ccc3nccc(-c4ccnnc4)c3c2)cc1NS(=O)(=O)c1ccc(F)cc1F [Omipalisib] (max concentration tested 1000 nM) ; measured percent inhibition of viability: 1.51

Lookup result for Cc1[nH]c(/C=C2\C(=O)Nc3ccccc32)c(C)c1CCC(=O)O [Orantinib] (max concentration tested 10000 nM) ; measured percent inhibition of viability: -3.34

Lookup result for CN(C)C(=O)c1cc2cnc(Nc3ccc(N4CCNCC4)cn3)nc2n1C1CCCC1 [NVP-LEE011] (max concentration tested 10000 nM) ; measured percent inhibition of viability: -3.41

Lookup result for C=CC[C@@H]1/C=C(\C)C[C@H](C)C[C@H](OC)[C@H]2O[C@@](O)(C(=O)C(=O)N3CCCC[C@H]3C(=O)O[C@H](/C(C)=C/[C@@H]3CC[C@@H](O)[C@H](OC)C3)[C@H](C)[C@@H](O)CC1=O)[C@H](C)C[C@@H]2OC [Tacrolimus] (max concentration tested 10000 nM) ; measured percent inhibition of viability: 0.78

Lookup result for C[C@@H]1C[C@H]2O[C@@H]2/C=C\C=C\C(=O)Cc2c(Cl)c(O)cc(O)c2C(=O)O1 [Radicicol] (max concentration tested 10000 nM) ; measured percent inhibition of viability: -1.95

Lookup result for CO[C@H]1C[C@@H]2CC[C@@H](C)[C@@](O)(O2)C(=O)C(=O)N2CCCC[C@H]2C(=O)O[C@H]([C@H](C)C[C@@H]2CC[C@@H](OC(=O)C(C)(CO)CO)[C@H](OC)C2)CC(=O)[C@H](C)/C=C(\C)[C@@H](O)[C@@H](OC)C(=O)[C@H](C)C[C@H](C)/C=C/C=C/C=C/1C [Temsirolimus] (max concentration tested 100 nM) ; measured percent inhibition of viability: 35.9

Lookup result for COc1cccc2c1C(=O)c1c(O)c3c(c(O)c1C2=O)C[C@@](O)(C(C)=O)C[C@@H]3O[C@H]1C[C@H](N)[C@H](O)[C@H](C)O1 [Daunorubicin] (max concentration tested 1000 nM) ; measured percent inhibition of viability: -9.89

Lookup result for CC(C)C[C@@H](C(=O)N[C@H](C(=O)OC1CCCC1)c1ccccc1)[C@H](O)C(=O)NO [Tosedostat] (max concentration tested 10000 nM) ; measured percent inhibition of viability: -4.4

---

# Test system: DERL-7 (IL-2 2.5 ng/mL)
# assay_method_text: percent inhibition of viability; higher = more inhibition
# assay_conditions: 72 h; 10000 nM
reported_endpoint: percent inhibition of viability (%)
# value in %; strip the unit string

The value of percent inhibition of viability recorded for COc1cc2ncnc(Nc3ccc(F)c(Cl)c3)c2cc1OCCCN1CCOCC1 [Gefitinib] (max concentration tested 10000 nM) when tested on DERL-7 (IL-2 2.5 ng/mL) reads 70.4

The value of percent inhibition of viability recorded for CCOC(=O)CCNc1cc(N2CCc3ccccc3CC2)nc(-c2ccccn2)n1 [GSK-J4] (max concentration tested 100000 nM) when tested on DERL-7 (IL-2 2.5 ng/mL) reads 93.4

The value of percent inhibition of viability recorded for O=c1[nH]c(=O)n([C@H]2C[C@H](O)[C@@H](CO)O2)cc1F [Floxuridine] (max concentration tested 10000 nM) when tested on DERL-7 (IL-2 2.5 ng/mL) reads 94.3

---

# Test system: normal primary NK cells, pool 1 (3 donors) (IL-2 2.5 ng/mL)
# assay_method_text: percent inhibition of viability; higher = more inhibition
# assay_conditions: 72 h; 1 nM
reported_endpoint: percent inhibition of viability (%)
# value in %; strip the unit string

Lookup result for O=NN(CCCl)C(=O)NCCCl [Carmustine] (max concentration tested 10000 nM) ; measured percent inhibition of viability: 4.94

Lookup result for Cc1[nH]c2ccccc2c1CCNCc1ccc(/C=C/C(=O)NO)cc1 [Panobinostat] (max concentration tested 1000 nM) ; measured percent inhibition of viability: -4.7

Lookup result for O=C(/C=C\n1cnc(-c2cc(C(F)(F)F)cc(C(F)(F)F)c2)n1)NNc1cnccn1 [Selinexor] (max concentration tested 10000 nM) ; measured percent inhibition of viability: 3.58

Lookup result for C[C@H]1C[C@@H]2[C@H]([C@@H](O)C[C@@]3(C)[C@H]2CC[C@]3(O)C(=O)CO)[C@@]2(C)C=CC(=O)C=C12 [Methylprednisolone] (max concentration tested 10000 nM) ; measured percent inhibition of viability: 6.03

Lookup result for COc1cc2c(Nc3ccc(Cl)c(Cl)c3F)ncnc2cc1OC[C@@H]1C[C@@H]2CN(C)C[C@@H]2C1 [XL-647] (max concentration tested 1000 nM) ; measured percent inhibition of viability: 15.8

Lookup result for CCCOc1ccn2c(C(C)=O)cc(-c3ccccc3S(C)(=O)=O)c2c1 [GSK2801] (max concentration tested 10000 nM) ; measured percent inhibition of viability: -8.08
